src = patent US20240317801A1

system_tested: Human Recombinant Matriptase 2 (Homo sapiens, UniProt Q8IU80)
Sequence (Q8IU80 whole entry): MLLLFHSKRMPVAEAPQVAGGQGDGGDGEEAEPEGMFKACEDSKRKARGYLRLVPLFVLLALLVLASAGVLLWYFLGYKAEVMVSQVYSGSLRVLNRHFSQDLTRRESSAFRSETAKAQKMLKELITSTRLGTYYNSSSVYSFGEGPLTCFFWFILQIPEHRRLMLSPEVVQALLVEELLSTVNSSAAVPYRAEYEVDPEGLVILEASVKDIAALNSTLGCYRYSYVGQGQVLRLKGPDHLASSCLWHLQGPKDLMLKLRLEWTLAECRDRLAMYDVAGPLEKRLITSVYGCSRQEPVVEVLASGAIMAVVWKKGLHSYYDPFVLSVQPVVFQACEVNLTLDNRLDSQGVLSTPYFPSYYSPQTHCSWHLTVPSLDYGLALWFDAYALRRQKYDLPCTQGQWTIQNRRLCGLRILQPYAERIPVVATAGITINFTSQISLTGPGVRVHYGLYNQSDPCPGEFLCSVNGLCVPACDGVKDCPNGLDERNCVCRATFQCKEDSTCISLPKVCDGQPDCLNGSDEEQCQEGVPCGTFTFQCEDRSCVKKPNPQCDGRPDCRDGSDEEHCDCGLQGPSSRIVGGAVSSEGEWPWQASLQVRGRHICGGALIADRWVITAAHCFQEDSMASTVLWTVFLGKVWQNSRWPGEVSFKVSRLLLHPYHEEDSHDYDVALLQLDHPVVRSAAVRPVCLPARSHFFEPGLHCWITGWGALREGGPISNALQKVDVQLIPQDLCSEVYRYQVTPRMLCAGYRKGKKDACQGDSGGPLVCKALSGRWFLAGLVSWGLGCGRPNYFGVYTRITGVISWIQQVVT
experimental_protocol: Matriptase 2 fluorescence-based inhibition assay (Boc-Gln-Ala-Arg-AMC substrate)
measurement_parameters: Ki derived from measured IC50 using Cheng-Prusoff equation; 30 min preincubation, 100 μM substrate, 25° C., pH 7.5; read-out: Mat-2 Ki
property: Ki

INSERT INTO measurements (molecule, system_tested, property, reported_result) VALUES
  ('C[C@@H](O)[C@H](NC(=O)C(CCc1ccccc1)NC(=O)OCc1ccccc1)C(=O)NC(CCc1ccc(N)nc1)C(=O)C(=O)NC(C)(C)C (some centres unmarked)', 'Human Recombinant Matriptase 2 (Homo sapiens, UniProt Q8IU80)', 'Ki', '100 to 1000 nM'),
  ('N=C(N)NCCC[C@H](NC(=O)[C@@H]1C[C@@H](O)CN1C(=O)[C@H](CCc1ccccc1)NC(=O)CCc1ccccc1)C(=O)C(=O)NC1CC1', 'Human Recombinant Matriptase 2 (Homo sapiens, UniProt Q8IU80)', 'Ki', '≤ 100 nM'),
  ('CO[C@H](C)[C@H](NC(=O)[C@H](CCc1ccccc1)NC(=O)CCc1ccccc1)C(=O)N[C@@H](CCCNC(=N)N)C(=O)C(=O)NC1CC1', 'Human Recombinant Matriptase 2 (Homo sapiens, UniProt Q8IU80)', 'Ki', '≤ 100 nM'),
  ('CNC(=O)C(=O)[C@H](CCCNC(=N)N)NC(=O)[C@@H](NC(=O)[C@H](CCc1ccccc1)NC(=O)OCc1ccccc1)[C@@H](C)O', 'Human Recombinant Matriptase 2 (Homo sapiens, UniProt Q8IU80)', 'Ki', '≤ 100 nM'),
  ('CC(C)(C)NC(=O)C(=O)C(CCCNC(=N)N)NC(=O)C1(NC(=O)[C@H](Cc2cscn2)NC(=O)OCc2ccccc2)CCCC1 (some centres unmarked)', 'Human Recombinant Matriptase 2 (Homo sapiens, UniProt Q8IU80)', 'Ki', '≤ 100 nM'),
  ('C[C@@H](O)[C@H](NC(=O)[C@H](CCc1ccccc1)NC(=O)CCc1ccccc1)C(=O)N[C@@H](CCCNC(=N)N)C(=O)C(N)=O', 'Human Recombinant Matriptase 2 (Homo sapiens, UniProt Q8IU80)', 'Ki', '≤ 100 nM'),
  ('CO[C@@H](C)C(NC(=O)[C@H](Cc1cscn1)NC(=O)OCc1ccccc1)C(=O)NC(CCCNC(=N)N)C(=O)C(=O)NC(C)(C)C (some centres unmarked)', 'Human Recombinant Matriptase 2 (Homo sapiens, UniProt Q8IU80)', 'Ki', '≤ 100 nM'),
  ('C[C@@H](O)[C@H](NC(=O)C(CCc1ccccc1)NC(=O)CCc1ccccc1)C(=O)NC(Cc1cccc(CN)c1)C(=O)C(=O)NC1CC1 (some centres unmarked)', 'Human Recombinant Matriptase 2 (Homo sapiens, UniProt Q8IU80)', 'Ki', '100 to 1000 nM');
